These data points were gathered from ChEMBL document CHEMBL6092222.

# Assay Overview: physchem
# Study Conditions: aqueous buffer, pH 6.5
# Description: Solubility of compound in aqueous buffer at pH 6.5 at 25 degreeC by reversed phase-HPLC analysis
Threshold check on solubility: at or above 300 µg/mL gives YES, strictly below gives NO.

INSERT INTO results (smiles_string, classification) VALUES
  ('[2H]C([2H])([2H])NC(=O)c1cn(COC(=O)c2ccc(COP(=O)(O)O)cc2)/c(=N/C(=O)C2CC2)cc1Nc1cccc(-c2nnn(C)n2)c1OC', 'NO'),
  ('NC(CO)(CO)CO.[2H]C([2H])([2H])NC(=O)c1cn(COP(=O)(O)O)/c(=N/C(=O)C2CC2)cc1Nc1cccc(-c2nnn(C)n2)c1OC', 'NO'),
  ('[2H]C([2H])([2H])NC(=O)c1cn(COC(=O)c2ccc(OP(=O)(O)O)c(OC)c2)/c(=N/C(=O)C2CC2)cc1Nc1cccc(-c2nnn(C)n2)c1OC', 'YES'),
  ('[2H]C([2H])([2H])N(COP(=O)([O-])[O-])C(=O)c1cnc(NC(=O)C2CC2)cc1Nc1cccc(-c2nnn(C)n2)c1OC.[Na+].[Na+]', 'YES'),
  ('[2H]C([2H])([2H])NC(=O)c1cnc(NC(=O)C2CC2)cc1Nc1cccc(-c2nnn(C)n2)c1OC', 'NO'),
  ('[2H]C([2H])([2H])NC(=O)c1cn(COP(=O)(O)O)/c(=N/C(=O)C2CC2)cc1Nc1cccc(-c2nnn(C)n2)c1OC', 'YES');
